# target.under.test: Cyclin-dependent kinase 2 (Homo sapiens, UniProt P24941)
# experiment.summary: Inhibition of human recombinant full length C-terminal His6-tagged CDK2 expressed in baculovirus infected Sf21 insect cells using fluorescence substrate after 60 mins by caliper off-chip incubation mobility shift assay
readout.type: pIC50
Numbers only, as −log10 of the molar value.

| structure.as.smiles | readout.type | numeric.readout |
| --- | --- | --- |
| COc1cc(N2CCN(C)CC2)ccc1Nc1nccc(-c2c[nH]c3cnc(C)cc23)n1 | pIC50 | 4.98 |
| COc1cc(N2CCN(C(C)=O)CC2)ccc1Nc1nccc(-c2c[nH]c3cnccc23)n1 | pIC50 | 5.70 |
| COc1cc(N2CCN(C)CC2)ccc1Nc1nccc(-c2cn(C)c3c(C)nccc23)n1 | pIC50 | 4.86 |
| C(=C\c1nccc(-c2c[nH]c3cnccc23)n1)/c1ccccc1 | pIC50 | 5.29 |

Proceeding to the next compound to report its pIC50.
Looking up Cc1nccc(-c2cn(Cc3ccccc3)c3cnccc23)n1 , I see its pIC50 listed as 4.25

---

# experiment.summary: Clearance in Wistar Han rat blood at 2 umol/kg
# Format: ADME, tissue-based
# condition.description: whole blood
readout.type: clearance (mL/min/kg)
Answers are plain numbers, in mL/min/kg.

Looking up CN1CCN(c2ccc(Nc3cc(-c4c[nH]c5ccccc45)ncn3)cc2)CC1 , I see its clearance listed as 42

---

# experiment.summary: Clearance in Wistar Han rat plasma at 2 umol/kg
# Assay type: ADME, cell-free
Flag rule - clearance less than 40 mL/min/kg flags Criterion met; the remaining entries get Criterion not met.

| structure.as.smiles | discrete.label |
| --- | --- |
| CN1CCN(c2ccc(Nc3cc(-c4c[nH]c5cnccc45)ncn3)cc2)CC1 | Criterion not met |
| COc1cc(N2CCN(C)CC2)ccc1Nc1nccc(-c2cn(C)c3cnccc23)n1 | Criterion met |

*Q* Lab log: compare recorded clearance with 40 mL/min/kg; is it strictly lower for Cc1nccc2c(-c3ccnc(-c4ccc(S(C)(=O)=O)cc4)n3)c[nH]c12 ?
*A* Criterion met

*Q* Lab log: compare recorded clearance with 40 mL/min/kg; is it strictly lower for Cn1cc(-c2ccnc(-c3ccc(S(C)(=O)=O)cc3)n2)c2ccncc21 ?
*A* Criterion met

*Q* Lab log: compare recorded clearance with 40 mL/min/kg; is it strictly lower for COc1cc(N2CCN(C(C)=O)CC2)ccc1Nc1nccc(-c2c[nH]c3cnccc23)n1 ?
*A* Criterion not met

*Q* Lab log: compare recorded clearance with 40 mL/min/kg; is it strictly lower for COc1cc(N2CCN(C)CC2)ccc1Nc1nccc(-c2c[nH]c3c(C)nccc23)n1 ?
*A* Criterion met

*Q* Lab log: compare recorded clearance with 40 mL/min/kg; is it strictly lower for COc1cc(N2CCN(C(C)=O)CC2)ccc1Nc1cc(-c2cn(C)c3cnccc23)ncn1 ?
*A* Criterion met

*Q* Lab log: compare recorded clearance with 40 mL/min/kg; is it strictly lower for COc1cc(N2CCN(C(C)=O)CC2)ccc1Nc1cc(-c2c[nH]c3cnccc23)ncn1 ?
*A* Criterion not met

*Q* Lab log: compare recorded clearance with 40 mL/min/kg; is it strictly lower for COc1cc(N2CCN(C)CC2)ccc1Nc1cc(-c2c[nH]c3cnccc23)ncn1 ?
*A* Criterion not met

*Q* Lab log: compare recorded clearance with 40 mL/min/kg; is it strictly lower for COc1cc(N2CCN(C)CC2)ccc1Nc1nccc(-c2cn(C)c3c(C)nccc23)n1 ?
*A* Criterion met

---

# experiment.summary: Intrinsic clearance in Wistar Han rat hepatocytes assessed per 10^6 cells
# Assay type: ADME, cell-based, Hepatocyte
# condition.description: read-out: CLH
We use 20 µL/min/1e6 cells as the dividing line for hepatocyte CLint: on or above the line is Criterion met, below is Criterion not met.

| structure.as.smiles | discrete.label |
| --- | --- |
| COc1cc(N2CCN(C(C)=O)CC2)ccc1Nc1cc(-c2cn(C)c3cnccc23)ncn1 | Criterion not met |

*Q* Does hepatocyte CLint meet or surpass 20 µL/min/1e6 cells for COc1cc(N2CCN(C)CC2)ccc1Nc1nccc(-c2cn(C)c3c(C)nccc23)n1 ?
*A* Criterion not met

*Q* Does hepatocyte CLint meet or surpass 20 µL/min/1e6 cells for CN1CCN(c2ccc(Nc3cc(-c4c[nH]c5ccccc45)ncn3)cc2)CC1 ?
*A* Criterion met

*Q* Does hepatocyte CLint meet or surpass 20 µL/min/1e6 cells for CS(=O)(=O)c1ccc(-c2nccc(-c3c[nH]c4cnccc34)n2)cc1 ?
*A* Criterion met

*Q* Does hepatocyte CLint meet or surpass 20 µL/min/1e6 cells for Cn1cc(-c2ccnc(-c3ccc(S(C)(=O)=O)cc3)n2)c2ccncc21 ?
*A* Criterion not met

*Q* Does hepatocyte CLint meet or surpass 20 µL/min/1e6 cells for CN1CCN(c2ccc(Nc3cc(-c4c[nH]c5cnccc45)ncn3)cc2)CC1 ?
*A* Criterion not met

*Q* Does hepatocyte CLint meet or surpass 20 µL/min/1e6 cells for COc1cc(N2CCN(C(C)=O)CC2)ccc1Nc1nccc(-c2c[nH]c3cnccc23)n1 ?
*A* Criterion not met

---

# target.under.test: UniProtKB P08069
# Sequence (P08069 31-736 limits assumed): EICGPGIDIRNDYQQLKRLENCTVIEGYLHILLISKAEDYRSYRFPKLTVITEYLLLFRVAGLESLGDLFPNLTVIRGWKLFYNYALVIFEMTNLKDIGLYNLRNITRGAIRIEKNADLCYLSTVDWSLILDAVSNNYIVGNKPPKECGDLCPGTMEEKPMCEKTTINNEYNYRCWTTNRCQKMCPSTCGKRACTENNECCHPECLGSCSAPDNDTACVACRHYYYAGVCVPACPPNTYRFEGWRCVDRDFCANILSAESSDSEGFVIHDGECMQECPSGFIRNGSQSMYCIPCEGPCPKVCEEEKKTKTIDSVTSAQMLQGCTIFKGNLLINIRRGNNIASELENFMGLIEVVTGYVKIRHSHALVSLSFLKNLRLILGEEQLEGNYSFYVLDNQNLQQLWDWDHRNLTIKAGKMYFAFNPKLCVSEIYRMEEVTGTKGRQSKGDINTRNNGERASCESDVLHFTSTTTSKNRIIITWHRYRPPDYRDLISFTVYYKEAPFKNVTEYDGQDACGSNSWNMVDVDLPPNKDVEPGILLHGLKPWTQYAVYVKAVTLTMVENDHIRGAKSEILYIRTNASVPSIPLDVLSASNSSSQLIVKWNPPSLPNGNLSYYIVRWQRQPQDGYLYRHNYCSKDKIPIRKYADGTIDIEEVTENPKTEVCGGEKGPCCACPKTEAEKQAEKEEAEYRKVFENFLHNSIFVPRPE
# Sequence (P08069 741-1367 limits assumed): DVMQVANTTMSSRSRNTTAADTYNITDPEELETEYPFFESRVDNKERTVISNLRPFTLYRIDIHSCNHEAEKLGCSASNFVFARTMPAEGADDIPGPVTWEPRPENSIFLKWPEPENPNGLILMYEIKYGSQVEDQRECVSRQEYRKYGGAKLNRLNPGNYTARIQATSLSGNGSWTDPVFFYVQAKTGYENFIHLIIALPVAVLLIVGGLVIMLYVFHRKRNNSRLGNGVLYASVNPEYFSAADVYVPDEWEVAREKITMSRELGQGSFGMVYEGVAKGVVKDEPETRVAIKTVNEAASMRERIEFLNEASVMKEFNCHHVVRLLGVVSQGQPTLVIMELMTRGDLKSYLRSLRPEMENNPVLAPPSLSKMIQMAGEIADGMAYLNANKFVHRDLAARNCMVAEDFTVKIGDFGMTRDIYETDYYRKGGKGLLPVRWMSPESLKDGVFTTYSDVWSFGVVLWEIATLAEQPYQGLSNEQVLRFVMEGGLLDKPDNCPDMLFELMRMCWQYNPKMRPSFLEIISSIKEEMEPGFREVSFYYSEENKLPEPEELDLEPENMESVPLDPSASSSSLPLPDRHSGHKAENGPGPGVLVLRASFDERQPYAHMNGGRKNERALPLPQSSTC
# experiment.summary: Inhibition of human recombinant N-terminal His6-tagged IGF-1R using fluorescence substrate after 80 mins by caliper off-chip incubation mobility shift assay
readout.type: IC50 (µM)
Answers are plain numbers, in µM.

Here are 2 compounds together with their reported answers.
| structure.as.smiles | numeric.readout |
| --- | --- |
| O=C(NC1CCCC1)c1ccc(-c2nccc(-c3c[nH]c4cnccc34)n2)cc1 | 67.7 |
| CN1CCN(c2ccc(Nc3ncc(Cl)c(-c4c[nH]c5cnccc45)n3)cc2)CC1 | 0.03 |

Proceeding to the next compound to report its IC50.
Looking up COc1cc(N2CCN(C(C)=O)CC2)ccc1Nc1nccc(-c2c[nH]c3cnccc23)n1 , I see its IC50 listed as 0.965

---

For each of the compounds below, state its solubility.
# experiment.summary: Aqueous solubility of the compound at pH 7.4
# Type: physicochemical
# condition.description: buffer
Give bare numbers, in µM.

Here are 2 compounds together with their reported answers.
| structure.as.smiles | solubility, µM |
| --- | --- |
| COc1cc(N2CCN(C(C)=O)CC2)ccc1Nc1cc(-c2cn(C)c3cnccc23)ncn1 | 53 |
| Cn1cc(-c2ccnc(-c3ccc(S(C)(=O)=O)cc3)n2)c2ccncc21 | 2 |

Looking up COc1cc(N2CCN(C)CC2)ccc1Nc1nccc(-c2cn(C)c3c(C)nccc23)n1 , I see its solubility listed as 4

---

# target.under.test: Dual specificity tyrosine-phosphorylation-regulated kinase 1B (Homo sapiens, UniProt Q9Y463)
# Sequence (Q9Y463 whole entry): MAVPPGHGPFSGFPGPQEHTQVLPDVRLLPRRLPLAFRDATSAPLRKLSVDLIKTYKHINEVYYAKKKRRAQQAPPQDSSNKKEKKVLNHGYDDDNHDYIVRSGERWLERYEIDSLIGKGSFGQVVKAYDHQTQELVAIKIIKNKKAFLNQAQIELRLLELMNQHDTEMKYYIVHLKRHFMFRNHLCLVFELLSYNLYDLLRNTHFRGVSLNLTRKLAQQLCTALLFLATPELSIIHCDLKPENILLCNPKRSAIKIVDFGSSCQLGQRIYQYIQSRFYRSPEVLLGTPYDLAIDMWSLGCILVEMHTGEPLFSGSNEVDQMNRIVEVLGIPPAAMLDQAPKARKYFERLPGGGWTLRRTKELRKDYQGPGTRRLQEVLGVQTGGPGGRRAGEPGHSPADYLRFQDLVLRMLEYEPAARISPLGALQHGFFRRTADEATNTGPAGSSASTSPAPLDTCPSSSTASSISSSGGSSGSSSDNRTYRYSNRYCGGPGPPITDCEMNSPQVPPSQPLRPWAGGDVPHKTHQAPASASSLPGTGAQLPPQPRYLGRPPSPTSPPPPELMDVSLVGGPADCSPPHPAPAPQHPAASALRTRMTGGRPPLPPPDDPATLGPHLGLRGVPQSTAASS
# experiment.summary: Inhibition of recombinant Dyrk1B (unknown origin) using FITC-Asp-His-Thr-Gly-Phe-Leu-Thr-Glu-Tyr-Val-Ala-Thr-Arg-NH2 as substrate after 60 mins
Flag rule - IC50 less than 20 nM flags Criterion met; the remaining entries get Criterion not met.

*Q* Lab log: compare recorded IC50 with 20 nM; is it strictly lower for COc1cc(N2CCN(C)CC2)ccc1Nc1cc(-c2c[nH]c3cnccc23)ncn1 ?
*A* Criterion met

*Q* Lab log: compare recorded IC50 with 20 nM; is it strictly lower for Cc1nccc(-c2c[nH]c3cnccc23)n1 ?
*A* Criterion met

*Q* Lab log: compare recorded IC50 with 20 nM; is it strictly lower for COc1cc(N2CCN(C(C)=O)CC2)ccc1Nc1cc(-c2cn(C)c3cnccc23)ncn1 ?
*A* Criterion not met

*Q* Lab log: compare recorded IC50 with 20 nM; is it strictly lower for COc1cc(N2CCN(C)CC2)ccc1Nc1nccc(-c2c[nH]c3cnc(C)cc23)n1 ?
*A* Criterion met

*Q* Lab log: compare recorded IC50 with 20 nM; is it strictly lower for Cn1cc(-c2ccnc(-c3ccc(S(C)(=O)=O)cc3)n2)c2ccncc21 ?
*A* Criterion met

*Q* Lab log: compare recorded IC50 with 20 nM; is it strictly lower for CN1CCN(c2ccc(Nc3cc(-c4c[nH]c5cnccc45)ncn3)cc2)CC1 ?
*A* Criterion met

*Q* Lab log: compare recorded IC50 with 20 nM; is it strictly lower for Cc1nccc(-c2cn(Cc3ccccc3)c3cnccc23)n1 ?
*A* Criterion met

*Q* Lab log: compare recorded IC50 with 20 nM; is it strictly lower for COc1cc(N2CCN(C)CC2)ccc1Nc1nccc(-c2c[nH]c3c(C)nccc23)n1 ?
*A* Criterion met

*Q* Lab log: compare recorded IC50 with 20 nM; is it strictly lower for CS(=O)(=O)c1ccc(-c2nccc(-c3c[nH]c4cnccc34)n2)cc1 ?
*A* Criterion not met

*Q* Lab log: compare recorded IC50 with 20 nM; is it strictly lower for Cc1nccc2c(-c3ccnc(-c4ccc(S(C)(=O)=O)cc4)n3)c[nH]c12 ?
*A* Criterion met

*Q* Lab log: compare recorded IC50 with 20 nM; is it strictly lower for O=C(NC1CCCC1)c1ccc(-c2nccc(-c3c[nH]c4cnccc34)n2)cc1 ?
*A* Criterion not met
